# Assayed Target: T1, human MHC class II DR protein (DRA*0101/DRB1*0401), purified from PRIESS cells (human, UniProt P01903 26-254; P01911 30-266, limits assumed)
# T1 construct: mature; also called HLA-DR protein; MHCII
# T1 MHC II alpha: not shown
# T1 MHC II beta: not shown
# Experiment Notes: SPR (BIAcore), MHCII on CM5 chip
As shown below, each of these binders has a reported koff value.
Could you give me the number in s⁻¹? Just the number is fine.

MS-GPC-8-27-41 Fab (Fab, V domains shown, Fab: VH-CH1 with FLAG tag and STREP tag II, VL-CL; VH residue 1 is Q in Fab; also called 1D09C3) VH: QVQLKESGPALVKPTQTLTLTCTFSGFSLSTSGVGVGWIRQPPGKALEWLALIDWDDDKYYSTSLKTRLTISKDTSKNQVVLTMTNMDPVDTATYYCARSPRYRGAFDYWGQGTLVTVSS VL: DIVLTQPPSVSGAPGQRVTISCSGSESNIGNNYVQWYQQLPGTAPKLLIYDNNQRPSGVPDRFSGSKSGTSASLAITGLQSEDEADYYCQSYDMNVHVFGGGTKLTVLG; 0.00049

Continue with the binder presented below.
Ask: Supply recorded koff for MS-GPC-8-6-2 Fab (Fab, V domains shown, Fab: VH-CH1 with FLAG tag and STREP tag II, VL-CL; VH residue 1 is Q in Fab) VH: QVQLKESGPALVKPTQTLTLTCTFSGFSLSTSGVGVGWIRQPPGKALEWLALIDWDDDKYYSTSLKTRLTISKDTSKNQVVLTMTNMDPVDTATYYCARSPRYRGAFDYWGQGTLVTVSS VL: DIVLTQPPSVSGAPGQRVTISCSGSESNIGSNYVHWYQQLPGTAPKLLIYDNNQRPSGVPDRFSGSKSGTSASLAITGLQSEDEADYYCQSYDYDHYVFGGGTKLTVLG here.
Result: 0.00094

Values were extracted from patent US7521047.
